Recorded % Visual Injury values for a group of molecules are listed next.
System: parent elite stiff stalk inbred corn
experiment.notes: Postemergence herbicide application in greenhouse: fresh shoot weight and visual injury
Format: in vivo
experimental.context: postemergence, 200 g/ha (glyphosate 3472 g ae/ha, glufosinate ammonium 1870 g/ha); 0% no injury, 100% plant death; mean of four replications
recorded.metric: % Visual Injury (%)

molecule	recorded.metric	unit.symbol	recorded.result
COc1nn(C(=O)NS(=O)(=O)c2ccccc2OC(F)(F)F)c(=O)n1C	% Visual Injury	%	100
COC(=O)c1ccc(C(F)(F)F)nc1S(=O)(=O)NC(=O)Nc1nc(OC)cc(OC)n1	% Visual Injury	%	95
COc1cc(OC)nc(NC(=O)NS(=O)(=O)c2ncccc2OCC(F)(F)F)n1	% Visual Injury	%	100
